- ASSAY INFO: P. aeruginosa biofilm formation inhibitors, primary screen, strain PAO1, LB-PBS medium, absorbance 600 nm (AID 1176); further: test concentration not given here
- TEST CONTEXT: P. aeruginosa PAO1 growth/biofilm, A600, 12 h; higher = more signal
# binarize z-score: threshold 0.5 inclusive, high side satisfied, low side not satisfied

Prompt: Does z-score meet or surpass 0.5 for O=C1[C@H]2[C@H]3[C@H](O)[C@H](O)CC(=NO[C@@H]4O[C@H](CO)[C@@H](O)[C@H](O)[C@H]4O)[C@H]3CC[C@H]2C(=O)N1Cc1ccccc1 ?
Completion: not satisfied

Prompt: Does z-score meet or surpass 0.5 for CC(C)(C)OC(=O)CC[C@]1(C(=O)NCc2ccccc2)N=C(c2ccc(OCCCO)cc2)O[C@H]1c1ccccc1 ?
Completion: not satisfied

Prompt: Does z-score meet or surpass 0.5 for CO[C@@H]1COC(=O)[C@H](C)NC(=O)[C@@H](C)COC(=O)CCC[C@H]1C ?
Completion: not satisfied

Prompt: Does z-score meet or surpass 0.5 for COc1cccc([C@@H]2Oc3ccc(Br)cc3C(=O)[C@H]2O)c1 ?
Completion: not satisfied

Prompt: Does z-score meet or surpass 0.5 for CCOC(=O)[C@H](Cc1ccccc1)NC(=O)CCC1CC(OC(=O)NCc2ccc3c(c2)OCO3)CC2(CCCC(COC(=O)NCC(c3ccccc3)c3ccccc3)O2)O1 (stereo partly drawn) ?
Completion: not satisfied

Prompt: Does z-score meet or surpass 0.5 for C=C(COC)/C(=C/C[C@H](OC(=O)c1ccncc1)c1ccc(CO)o1)c1cc(C(=O)OC)ccc1OC ?
Completion: satisfied

Prompt: Does z-score meet or surpass 0.5 for C#C[C@@H](CC)O[Si](C#Cc1ccc(Oc2ccccc2)cc1)(C(C)C)C(C)C ?
Completion: satisfied

Prompt: Does z-score meet or surpass 0.5 for COCCOC(=O)N1C(=O)[C@@]2(c3ccccc31)[C@H](C(N)=O)[C@H]1C(=O)O[C@H](c3ccccc3)[C@H](c3ccccc3)N1[C@@H]2c1ccccc1OCCO ?
Completion: satisfied
